test system: SEM cells; assay: cell viability relative to DMSO control; higher = less cytotoxic; settings: HPLM + 10% dialyzed FBS; 48 h; 46.1 µM
measurement-kind: cell viability (%)
Use % as the unit, but write only the number.

Use these answered entries as a reference point.
molecule: CCN(c1ccccc1)c1cc(NC)[n+](C)c(C)n1
unit-tag: %
cell viability: 97.9

molecule: Cn1cc(C[C@@H](N)C(=O)O)c2ccccc21
unit-tag: %
cell viability: 76.7

molecule: CC(C)OC1=CC=C2C(=C1)O\C=C(/C2=O)C3=CC=CC=C3
unit-tag: %
cell viability: 106

molecule: CCOC(=O)\C1=C\[C@@H](OC(CC)CC)[C@H](NC(C)=O)[C@@H](N)C1
unit-tag: %
cell viability: 56

molecule: O=C(O)CC/C=C\CC[C@@H]1[C@@H](N2CCCCC2)[C@@H](O)C[C@@H]1OCc1ccc(-c2ccccc2)cc1
unit-tag: %
cell viability: 112

In plain terms, CC(C)(C)[C@H](NC(=O)c1ccc(N)c(Cl)c1)C(=O)N1CCC[C@H]1C(=O)N[C@H](C#N)CC(=O)O has a documented cell viability of 130

In plain terms, OCCn1cc(-c2cnc3nnn(Cc4ccc5ncccc5c4)c3n2)cn1 has a documented cell viability of 38.5

In plain terms, N=C1N[C@H]2[C@H](CS[C@H]2CCCCC(=O)O)N1 has a documented cell viability of 109

In plain terms, NC(=O)OCC(COC(N)=O)c1ccccc1 has a documented cell viability of 90.6

In plain terms, Cc1ccc2c(c1)c1c(n2CCc2ccc(C)nc2)CCN(C)C1 has a documented cell viability of 106

In plain terms, CNC(=O)Nc1ccc(-c2nc(N3CC4CCC(C3)O4)c3cnn(C4CCC5(CC4)OCCO5)c3n2)cc1 has a documented cell viability of 36.9

In plain terms, Nc1ncnc2c1c(-c1cccc(OCc3ccccc3)c1)cn2C1CC(CN2CCCC2)C1 (stereo not drawn) has a documented cell viability of 29.6

In plain terms, CCCC1OC2C[C@H]3[C@@H]4CCC5=CC(=O)C=C[C@]5(C)[C@H]4C(O)C[C@]3(C)[C@]2(C(=O)CO)O1 (stereo partly drawn) has a documented cell viability of 27.4

###

tested on: SEM cells; assay: cell viability relative to DMSO control; higher = less cytotoxic; settings: RPMI 5 mM glucose + 10% FBS; 48 h; 15.4 µM
Reported cell viability values for the following compounds.
Use % as the unit, but write only the number.

item-smiles: N#C[C@H](O[C@@H]1O[C@H](CO[C@@H]2O[C@H](CO)[C@@H](O)[C@H](O)[C@H]2O)[C@@H](O)[C@H](O)[C@H]1O)c1ccccc1
measurement-kind: cell viability
reported: 95.7

In plain terms, C=CCc1ccc(O)c(-c2ccc(O)c(CC=C)c2)c1 has a documented cell viability of 21.4

In plain terms, CCOc1cc(CC(=O)N[C@@H](CC(C)C)c2ccccc2N2CCCCC2)ccc1C(=O)O has a documented cell viability of 129

In plain terms, CN(C)CCN1C(=O)c2cccc3cc(N)cc(c23)C1=O has a documented cell viability of 19.3

###

tested on: P12-Ichikawa; test: cell viability relative to DMSO control; higher = less cytotoxic; settings: HPLM + 10% dialyzed FBS; 48 h; 1.71 µM
measurement-kind: cell viability (%)
Use % as the unit, but write only the number.

Use these answered entries as a reference point.
molecule: CC(NCCc1ccc(O)cc1)C(O)c1ccc(O)cc1 (stereo not drawn)
unit-tag: %
cell viability: 103

molecule: COc1cccc2c1CCCC2CCCN1CCN(C2CCCCC2)CC1 (stereo not drawn)
unit-tag: %
cell viability: 110

molecule: COc1ccc2cc1Oc1ccc(cc1)C[C@H]1c3cc(c(OC)cc3CCN1C)Oc1c(OC)c(OC)cc3c1[C@H](C2)N(C)CC3
unit-tag: %
cell viability: 101

In plain terms, CCCC1OC2C[C@H]3[C@@H]4CCC5=CC(=O)C=C[C@]5(C)[C@H]4C(O)C[C@]3(C)[C@]2(C(=O)CO)O1 (stereo partly drawn) has a documented cell viability of 64

In plain terms, COc1cc(C)c(Sc2cnc(NC(=O)c3ccc(CNC(C)C(C)C)cc3)s2)cc1C(=O)N1CCN(C(C)=O)CC1 (stereo not drawn) has a documented cell viability of 107

In plain terms, COC(=O)N1CC2(CC2)C[C@H](C(=O)NO)[C@H]1C(=O)N1CCN(c2ccccc2)CC1 has a documented cell viability of 30.1

In plain terms, O=C(O)CC/C=C\CC[C@@H]1[C@@H](N2CCCCC2)[C@@H](O)C[C@@H]1OCc1ccc(-c2ccccc2)cc1 has a documented cell viability of 129

In plain terms, COc1cc(N2CCC(N(C)C)CC2)ccc1Nc1ncc(Cl)c(Nc2ccccc2P(C)(C)=O)n1 has a documented cell viability of 40.5

In plain terms, O=c1[nH]c(=O)n(C2CCCO2)cc1F (stereo not drawn) has a documented cell viability of 123

###

system: NOMO1; experiment: cell viability relative to DMSO control; higher = less cytotoxic; conditions: RPMI 5 mM glucose + 10% dialyzed FBS; 48 h; 1.71 µM
Reported cell viability values for the following compounds.
Use % as the unit, but write only the number.

// assay NOMO1, entry CN1CCN(CCCN2c3ccccc3Sc3ccc(C(F)(F)F)cc32)CC1 , cell viability value = 104

// assay NOMO1, entry C[C@@]1(C(=O)Nc2ccc(F)nc2)CCCN1c1nc(Nc2cc(C3CC3)[nH]n2)c2cccn2n1 , cell viability value = 86.2

// assay NOMO1, entry Cn1cc(C[C@@H](N)C(=O)O)c2ccccc21 , cell viability value = 88.9

// assay NOMO1, entry COC1=CC=C2CN(C)CC[C@@]34\C=C/[C@H](O)C[C@@H]3OC1=C24 , cell viability value = 115

// assay NOMO1, entry Nc1nc(Cl)nc2c1ncn2[C@@H]1O[C@H](CO)[C@@H](O)[C@@H]1F , cell viability value = 16.4

// assay NOMO1, entry OC1=CC2=C(C(=C1)O)C(=O)\C(=C(/O2)C3=CC(=C(O)C=C3)O)O , cell viability value = 104

###

Reported cell viability values for the following compounds.
test system: SEM cells; experiment: cell viability relative to DMSO control; higher = less cytotoxic; conditions: RPMI 5 mM glucose + 10% FBS; 48 h; 1.71 µM
Use % as the unit, but write only the number.

Use these answered entries as a reference point.
compound: CC(=O)[C@]1(O)Cc2c(O)c3c(c(O)c2[C@@H](O[C@H]2C[C@H](N)[C@H](O)[C@H](C)O2)C1)C(=O)c1ccccc1C3=O
test-system: SEM cells
unit-tag: %
cell viability: 18.9
//
compound: OCc1ccc(-c2ccc(-c3ccc(CO)s3)o2)s1
test-system: SEM cells
unit-tag: %
cell viability: 80.6
//
compound: CCOC1=CC=CC=C1N\2C(=O)C3=C(C=CC=C3)\N=C2C(C)N4CCN(CC4)C(=O)COC5=CC=C(Cl)C=C5 (stereo unspecified)
test-system: SEM cells
unit-tag: %
cell viability: 6.16
//
compound: CC(C)OC1=CC=C2C(=C1)O\C=C(/C2=O)C3=CC=CC=C3
test-system: SEM cells
unit-tag: %
cell viability: 144

In plain terms, COC(=O)\C1=C\CCN(C)C1 has a documented cell viability of 110

In plain terms, CC/1=C(\O)C(=O)\C=C2/C1=C/C=C3\[C@@]2(C)CC[C@@]4(C)[C@@H]5C[C@@](C)(CC[C@]5(C)CC[C@]34C)C(O)=O has a documented cell viability of 85.7

In plain terms, NC(=O)NO has a documented cell viability of 86.1

In plain terms, CC(C)(O)c1cc2nc(-c3cnc(N)nc3)nc(N3CCOCC3)c2s1 has a documented cell viability of 39.1

In plain terms, CCOc1ccc(Cc2cc([C@@H]3O[C@H](CO)[C@@H](O)[C@H](O)[C@H]3O)ccc2Cl)cc1 has a documented cell viability of 121

In plain terms, CNC(=O)C1=CC=C(C)C(=C1)N2C(=C/C(=C(/Br)C2=O)OCC3=C(F)C=C(F)C=C3)\C has a documented cell viability of 139

In plain terms, CC(C)[C@H](N)C(=O)OCCOC[N]1C=NC2=C1\N=C(N)/NC2=O has a documented cell viability of 90.5

###

tested on: SEM cells; test: cell viability relative to DMSO control; higher = less cytotoxic; details: HPLM + 10% dialyzed FBS; 48 h; 0.0211 µM
measurement-kind: cell viability (%)
Use % as the unit, but write only the number.

molecule: NC(=O)Nc1cc(-c2cccc(F)c2)sc1C(=O)N[C@H]1CCCNC1
cell viability (%): 46.3

In plain terms, CCOC(=O)/C=C/[C@H](C[C@@H]1CCNC1=O)NC(=O)[C@@H](CC(=O)[C@@H](NC(=O)c1cc(C)on1)C(C)C)Cc1ccc(F)cc1 has a documented cell viability of 90.4

In plain terms, CN1CCN(CCCN2c3ccccc3Sc3ccc(C(F)(F)F)cc32)CC1 has a documented cell viability of 103

Reference source for all entries: the supplement of paper PMC11451515
